Where do the numbers come from? From PubChem BioAssay AID1918.

biological target: ATP-sensitive inward rectifier potassium channel 1 (Homo sapiens); experiment: ROMK potassium channel modulators, primary screen, cell-based, thallium flux, MLSMR library (AID 1918); conditions: Tet-inducible ROMK, thallium flux fluorescence; at 10 µM; actives lie on both sides;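 note: B-score of the F/F0 ratio slope over 7 to 12 s after thallium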
About 2,500 (1.9%) of roughly 130,000 compounds were called active. The sample holds actives, similar compounds and a random draw of the others, so the mix is not that of the screen.
Decision: B-score >= 0.2 yields Fulfilled, all other cases yield Not fulfilled.

Assess whether reported B-score for O=S(=O)(NCc1ccco1)c1cnc(Cl)c(Cl)c1 sits at 0.2 or higher.
Fulfilled

Now give it for COC(=O)c1c(C)oc(C)c1S(=O)(=O)NCc1ccc(Cl)cc1 too.
Not fulfilled

Now consider CCn1cc(C(=O)NCc2ccc3c(c2)OCO3)c2cc(OC)c(OC)cc2c1=O and answer again.
Fulfilled

Likewise for CCOC(=O)Cc1csc(NC(NC(=O)OCC)(C(F)(F)F)C(F)(F)F)n1 ?
Fulfilled

Would you kindly repeat that for O=C(COc1ccccc1)Nc1ccc(N2CCN(C(=O)c3cccs3)CC2)cc1 ?
Not fulfilled

How about this molecule: Cc1nc2ccccc2cc1C(=O)N/N=C/c1ccc([N+](=O)[O-])cc1
Not fulfilled

Repeat for the following molecule: CCOC(=O)Cc1csc(NC(=O)Nc2ccccc2)n1
Not fulfilled

Lookup CCc1nc2ccccc2c(C(=O)NCc2ccc(OC)cc2)c1C
Not fulfilled

// same read-out, input: CCc1nnc(NC(=O)Cc2cccs2)s1
Fulfilled

Please answer likewise for COc1cc2c(C(=O)N3CCN(C)CC3)c(CSc3ccccc3)n(C)c2cc1Br
Not fulfilled

Follow-up item: O=C(Nc1ccc(N2C(=O)c3cccc4cccc(c34)C2=O)cc1)c1ccc(N2CCCCC2)c([N+](=O)[O-])c1
Not fulfilled

Same for Cc1cc(C)n(-c2nc(C(F)(F)F)nc3ccccc23)n1
Not fulfilled

Now consider COc1ccccc1Cn1c(C)nnc1-c1cnn(C)c1N and answer again.
Fulfilled

Query CCOC(=O)C1CCN(S(=O)(=O)c2cc(F)ccc2OC)CC1 next
Not fulfilled

What do we get for Cn1nc(C(F)(F)F)c2cc(C(=O)N3CCOCC3)sc21 ?
Fulfilled

# iterate: CCN(CC)CC1(O)CCN(C(=O)c2ccc(Cl)c(Cl)c2)CC1
Fulfilled

Check COc1ccc(-n2c(O)c(C=NCC(c3ccco3)N3CCCC3)c3ccccc3c2=O)cc1OC (centres undefined) too.
Not fulfilled

Would you mind doing COc1cccc(-n2c(=S)[nH]c3c(oc4ccccc43)c2=O)c1 as well?
Not fulfilled

Here is the next molecule: CC(NC(=O)c1ccc(N2CCNCC2)c([N+](=O)[O-])c1)C12CC3CC(CC(C3)C1)C2 (centres undefined)
Not fulfilled

And CCOc1cc(NC(=S)NCCCN(C)C)c(OCC)cc1NC(=O)C1CC1 ?
Fulfilled

What do we get for COC(=O)CNC(=O)c1ccccc1F ?
Fulfilled

Now consider COc1ccc2c(c1)CCC/C2=N\OC(=O)c1ccccc1F and answer again.
Not fulfilled

# iterate: Cc1ccnc(NC(=O)CCC(=O)N(CC(=O)NCc2ccccc2)Cc2ccco2)c1
Not fulfilled

COC(=O)c1ccccc1NC(=O)C1CC(=O)N(c2ccc(OC)cc2)C1 (centres undefined) ?
Fulfilled

Same question for NC(=O)C1CCN(C(=O)COc2cccc3cccnc23)CC1 please.
Not fulfilled

Would you kindly repeat that for CCC(=O)Nc1sc(C(=O)Nc2ccccc2)c(C)c1C(=O)OC ?
Not fulfilled

Try this molecule next: O=C(COC(=O)c1cnccn1)Nc1cccc2ccccc12
Fulfilled

Record: c1ccc2c(c1)CSc1sccc1C2=C1CCNCC1
Not fulfilled

Cool, now CCC(C(=O)Nc1ccc(C(C)C)cc1)c1ccccc1 (centres undefined)
Not fulfilled

What would you report for CCOC(=O)Cc1csc(NC(=O)CSc2nc(C)cc(=O)[nH]2)n1 ?
Not fulfilled

Cc1cc(=O)[nH]c2nnnn12 ?
Not fulfilled

Another molecule to look at: CCCC(c1nnnn1C(C)(C)C)N1CCN(Cc2ccccc2)CC1 (centres undefined)
Not fulfilled

Next record, please: CC(C)C(c1nnnn1Cc1ccccc1)N1CCC(C(N)=O)CC1 (centres undefined)
Fulfilled

Also CCOC(=O)Cc1csc(SCC(=O)NC(C)C23CC4CC(CC(C4)C2)C3)n1 (centres undefined) ?
Not fulfilled

// next record CCC1CCCCN1S(=O)(=O)Cc1ccccc1Cl (centres undefined)
Not fulfilled

What about this molecule? CCC(C)(C)NC(=O)C(c1ccccn1)N(C(=O)c1csnn1)c1ccccc1 (centres undefined)
Fulfilled

Moving on to [O-][n+]1c2c(nn1-c1ccc(Cl)c(Cl)c1)-c1nonc1CC2
Not fulfilled

Here is the next molecule: CCOC(=O)c1ccc(N2C(=O)CC(N3CCN(C(=O)c4ccccc4)CC3)C2=O)cc1 (centres undefined)
Not fulfilled

Same again, this time with CN(C)/C=C(/C(=O)c1ccccc1Cl)S(C)(=O)=O
Fulfilled

Next: C[C@H](NC(=O)c1ccccc1Cl)C(=O)OCCOc1cccc(Cl)c1
Not fulfilled

Same for Cc1ccccc1CCN(CC(=O)NC1CCCCC1)C(=O)c1csnn1
Not fulfilled

Next: CN(C)/C=C(/C(=O)c1ccccc1)S(=O)(=O)c1ccc(Cl)cc1
Not fulfilled

Lookup O=C(Nc1cccc(C(F)(F)F)c1)c1ccc(N2CCNCC2)c([N+](=O)[O-])c1
Not fulfilled
